# credit: PubChem BioAssay (NCI)

# assayText: NCI Yeast Anticancer Drug Screen. Data for the bub3 strain (AID 167)
# condition: S. cerevisiae bub3 mutant strain, at 50.0 µM
# Experimental: Growth inhibition of yeast strains with defined genetic alterations is measured as a screen for potential anti-cancer activity. Selected strains with alterations in DNA damage repair or cell cycle control were exposed to compounds and growth inhibition was measured relative to vehicle treated controls. The strain used in this assay is bub3
This is part of a sample that, as a whole, favours compounds with a hit. Of some 79,000 tested, about 15% had one in any assay. Calls of active or inactive are those of the source. Cut-off read from the data, not from the text of the source: active = growth inhibition above about 70%; inactive = the rest.
Valid outcomes are listed here; reply with one: active, inactive

Task: Hi, sorry to bother you, what did the test record for O=C1C=CC(=Nc2ccc3c(c2)Cc2cc(Cl)ccc2-3)O1 ?
Result: active

Task: CN(Cc1cccc2ccccc12)Cc1cccc2ccccc12 , same question.
Result: active

Task: O=C(Cc1ccccc1F)NC1=C(Cl)C(=O)c2ccccc2C1=O , same question.
Result: inactive

Task: CCOC(=O)c1[nH]c2cccc3c2c1CC(Br)C3=O (stereo not given) , same question.
Result: active

Task: CC[N+]1(C)CCC(O)(/C=C/c2ccc(Cl)c(Cl)c2)C(C(=O)/C=C/c2ccc(Cl)c(Cl)c2)C1 (stereo not given) , same question.
Result: active

Task: CC1(C)CC(=O)C(C(CC(c2ccccc2)c2cc3c(cc2O)OCO3)C2=C(O)CC(C)(C)CC2=O)=C(O)C1 (stereo not given) , same question.
Result: active

Task: COc1ccc2nc3cccc([N+](=O)[O-])c3c(NCCCO)c2c1 , same question.
Result: active

Task: O=[N+]([O-])c1ccc2nnnn2c1 , same question.
Result: inactive

Task: Cc1cccc[c]1[Sn]([Cl])([S]/C(C#N)=N/N=C/c1ccc(N(C)C)cc1)[c]1ccccc1C , same question.
Result: active
